Structures can show the parent of a compound that is named as a salt.
Consider the following pKi values measured on type H3 mouse histamine receptors (Mus musculus, UniProt P58406).
Sequence (P58406 whole entry): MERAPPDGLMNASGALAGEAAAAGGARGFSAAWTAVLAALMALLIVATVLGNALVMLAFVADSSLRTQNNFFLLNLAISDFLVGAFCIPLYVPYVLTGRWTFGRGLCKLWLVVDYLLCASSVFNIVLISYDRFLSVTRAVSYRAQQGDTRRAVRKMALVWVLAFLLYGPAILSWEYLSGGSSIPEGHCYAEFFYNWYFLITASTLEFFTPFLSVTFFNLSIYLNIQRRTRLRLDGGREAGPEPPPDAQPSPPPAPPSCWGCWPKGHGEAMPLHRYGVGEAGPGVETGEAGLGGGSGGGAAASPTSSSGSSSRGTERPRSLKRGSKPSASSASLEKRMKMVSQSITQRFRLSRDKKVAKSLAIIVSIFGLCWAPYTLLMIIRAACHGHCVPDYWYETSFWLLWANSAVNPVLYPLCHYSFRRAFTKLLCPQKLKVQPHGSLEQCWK
In plain terms, pKi is the concentration in mol/L turned into minus its base-10 logarithm.

# compound, result
records = [
    ("COCC(=O)Nc1ccc(OCCCN2CC[C@H]3C[C@H]32)cc1 (racemic) [Example 9, hydrochloride]", 6.41),
    ("CN(C)C(=O)c1ccc(OCCCN2CC[C@H]3C[C@H]32)cc1 (racemic) [Example 5, hydrochloride]", 6.74),
    ("CC(=O)Nc1ccc(OCCCN2CC[C@H]3C[C@H]32)cc1 (racemic) [Example 3, hydrochloride]", 6.12),
]

Reported pKi ( NC(=O)c1ccc(OCCCN2CC[C@H]3C[C@H]32)cc1 (racemic) [Example 1, hydrochloride] ) = 5.62

---

# tested-system: type H3 central histamine receptors (Mus musculus)
# Construct: from tissue; host or cells: brain of living NMRI mice (oral dosing)
# test-method-notes: Cerebral levels of Nτ-methylhistamine in the NMRI mouse (ex vivo)
# condition-info: 3 mg/kg PO, one hour after treatment, versus carrier controls
Where a name gives a salt, the structure may show the parent alone.
readout-type: increase of endogenous cerebral concentrations of Nτ-methylhistamine

Look over these answered cases.
# compound, result
measured = [
    ("CCN(CC)C(=O)c1ccc(OCCCN2CC[C@H]3C[C@H]32)cc1.Cl (relative stereo)", "+225%"),
    ("CNC(=O)c1ccc(OCCCN2CC[C@H]3C[C@H]32)cc1.Cl (relative stereo)", "+377%"),
]

Measured increase of endogenous cerebral concentrations of Nτ-methylhistamine for this entry COCC(=O)Nc1ccc(OCCCN2CC[C@H]3C[C@H]32)cc1 (relative stereo) [Example 9, hydrochloride] on type H3 central histamine receptors (Mus musculus): +250%

Measured increase of endogenous cerebral concentrations of Nτ-methylhistamine for this entry CC(=O)Nc1ccc(OCCN2CC[C@H]3C[C@H]32)cc1.Cl (relative stereo) on type H3 central histamine receptors (Mus musculus): +221%

Measured increase of endogenous cerebral concentrations of Nτ-methylhistamine for this entry CC(=O)Nc1ccc(OCCCN2CC[C@H]3C[C@H]32)cc1 (relative stereo) [Example 3, hydrochloride] on type H3 central histamine receptors (Mus musculus): +272%

Measured increase of endogenous cerebral concentrations of Nτ-methylhistamine for this entry CC(=O)N(C)c1ccc(OCCCN2CC[C@H]3C[C@H]32)cc1.Cl (relative stereo) on type H3 central histamine receptors (Mus musculus): +276%

Entry source: patent US20120283245A1
